Recorded IC50 by entry
Test system: Plasmodium falciparum 3D7 (chloroquine-sensitive)
Assay Remarks: In vitro drug susceptibility assay, 3D7 strain (flow cytometry, SYBR Green I / MitoTracker Deep Red)
Assay type: cell-based
Condition Info: asynchronous parasites, 72 h, 0.1-100 µM; read-out: IC50 ± SD Pf3D7
Hi! Could you send only the number? It should be in µM, unit omitted.

QUERY: So what IC50 did COC(=O)Cc1c(SC23CC4CC(CC(C4)C2)C3)[nH]c2ccccc12 [Compound 18] get with Plasmodium falciparum 3D7 (chloroquine-sensitive)?
RESULT: 13.5

QUERY: What do you have for COC(=O)Cc1c(Sc2ccccc2)[nH]c2ccccc12 [Compound 3] ?
RESULT: 10.6

QUERY: Queued: CCCCCCCCCCCCSc1[nH]c2cc(Cl)ccc2c1CC(=O)OC [Compound 21]
RESULT: 19.1

API: the following record is the query input.
QUERY: Record lookup: for Plasmodium falciparum 3D7 (chloroquine-sensitive), what IC50 belongs to c1ccc(Cc2c(Sc3ccccc3)[nH]c3ccccc23)cc1 [Compound 26] ?
RESULT: 13.5

Hey, just so you know, these numbers are from paper PMC9138683.
